Provide the recorded IC50 for the entries that follow.
Test system: peripheral blood mononuclear cells (PBMC) with allogeneic PBMC or RPMI1788 stimulator cells
Assay: Mixed lymphocyte reaction (MLR) test, [3H]-thymidine incorporation
Format: cell-based, human
Conditions: Table 1; 5 days incubation + 16 h thymidine
Procedure: Various models may be used for testing an immunosuppressive effect. In vivo, for example, different transplantation models are available. […] Usually activation is measured via lymphocyte proliferation. […] Peripheral blood mononuclear cells (hereinafter referred as PBMC) were isolated from heparinized peripheral blood by density gradient centrifugation over Lymphoprep (Nycomed, Maorstua, Norway). […] After a further 16 hours incubation, cells were harvested and counted in a β-counter. […]
Answer with the value and then the unit.

Consider Cn1c(=O)c2nc(C#N)c(Cl)nc2n(C)c1=O . Its measured IC50 is 104 µM

The reported IC50 of the molecule Cn1c(=O)c2nc(/C=C/c3cccnc3)cnc2n(C)c1=O was 30 µM

Cn1c(=O)c2nc(C=O)c(NC3CC3)nc2n(C)c1=O yielded IC50 of 80 µM

GET /value?item= Cn1c(=O)[nH]c2nc(O)c(-c3ccccc3)nc2c1=O [Example 42, 7-hydroxy-3-methyl-6-phenyllumazine] &field=IC50 returns 55 µM

What the record says about CCOC(=O)c1nc2c(=O)n(C)c(=O)n(C)c2nc1Cl : IC50 is 12.5 µM

For record CCOC(=O)c1nc2c(=O)n(C)c(=O)n(C)c2nc1NNc1ccccc1 the listed IC50 is 20 µM

Reported IC50 ( CCOC(=O)c1nc2c(=O)n(C)c(=O)n(C)c2nc1N1CCCCC1 ) = 104 µM

Reported IC50 for Cn1c(=O)c2ncc(Cl)nc2n(C)c1=O was 12 µM

For this molecule ( Cc1nc2c(nc1NCc1ccccc1)c(=O)n(C)c(=O)n2C ), measured IC50 is 44 µM
